Assay: chemical genetic growth profiling, strain panel (AID 1159580);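 further: tested at 20 µM; growth read once vehicle control cultures reached saturation at 30 °C; 1 = growth at the plate median or of vehicle wells; lower values mean less growth of the strain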
Conditions: S. cerevisiae deletion strains, growth OD, locus YOR329C, strain SCD5, active compounds read low
The campaign covered roughly 5,500 compounds. About 2,000 (36%) were called active. Another 18% or so got no clear call; they are omitted. Some of the results follow.
Overview of recorded normalized growth for various compounds

Recorded normalized growth, per entry:
ClC1=C(C=Nc2ccc(Cl)cc2)CSc2ccc(Cl)cc21: 0.93 (inactive)
Cc1c(-c2ccnn2C(=O)c2ccco2)cnn1-c1ccccc1: 0.974 (inactive)
Cc1c(C(=O)N(Cc2ccccc2)Cc2cccs2)cnn1-c1ccc(Cl)cc1: 0.99 (inactive)
O=[N+]([O-])c1ccc2oc(C(O)c3ccc(-c4ccccc4)cc3)cc2c1 (configuration not stated): 0.985 (inactive)
CCCCN(C)C(=O)c1cc([N+](=O)[O-])cc2c1-c1ccc([N+](=O)[O-])cc1C2=C(C#N)C#N: 0.99 (inactive)
Cc1ccc(NC(=O)c2ccccc2N=Cc2cc(Cl)cc(Cl)c2O)c(N=Cc2cc(Cl)cc(Cl)c2O)c1: 0.913 (inactive)

Task: Item under review: `COC(=O)c1sccc1-c1ccc(/C=C/[N+](=O)[O-])o1` . Reported normalized growth?
Result: 0.965 (inactive)

Task: What value of normalized growth has been recorded for this entry: `O=C(Nc1ccc(Cl)cc1)OCCSc1nc2ccccc2s1`
Result: 0.987 (inactive)

Task: Fill in: normalized growth of `CC1(C)OC(=O)C(=Cc2cccn2-c2ccc(OC(F)(F)F)cc2)C(=O)O1` is ___
Result: 0.986 (inactive)

Task: Reported normalized growth, compound `Cc1onc(-c2c(F)cccc2Cl)c1C(=O)NNc1cc(Cl)cc(Cl)c1` : ____
Result: 0.984 (inactive)

Task: Need normalized growth of `O=C(Nc1ccc(OC(F)(F)F)cc1)OC1CN(C(c2ccccc2)c2ccccc2)C1` , thanks.
Result: 0.999 (inactive)

====

Assay: chemical genetic growth profiling, strain panel (AID 1159580)
Details: S. cerevisiae deletion strains, growth OD, locus YLR258W, strain gsy2, active compounds read low
Screen size: about 5,500 compounds; about 2,000 (36%) were called active. Another 18% or so got no clear call; they are omitted. This is one part of the list.
attribute measured: normalized growth
Format: numeric value only, no unit, no commentary.

// solved cases for normalized growth follow
COc1ccc(CCN2CCC(Nc3nc4ccccc4n3Cc3ccc(F)cc3)CC2)cc1: 0.962
CCOC(=O)Nc1nc2ccccc2[nH]1: 0.984
O=C1NC(=O)C(=O)C(=O)N1: 1.01
C=C1C(=O)O[C@@H]2C[C@@]3(C)CCC[C@H](C)C3=C[C@H]12: 0.819
NS(=O)(=O)c1cc2c(cc1Cl)NC(C(Cl)Cl)NS2(=O)=O (stereo unspecified): 0.977

Task: Field request: normalized growth | item: `O=c1[nH]oc2c1CCNC2`
Result: 1

====

Experiment: chemical genetic growth profiling, strain panel (AID 1159580)
Details: S. cerevisiae deletion strains, growth OD, locus YDR392W, strain spt3
The whole screen tested about 5,500 compounds, of which about 2,000 (36%) were called active. Another 18% or so got no clear call; they are omitted. Cut-off read from the data, not from the text of the source: active = normalized growth mostly below about 0.91 (no sharp cut-off); inconclusive = no clear call, values can overlap the other calls; inactive = mostly above about 0.92. This is one part of the list.
Your response should consist of one outcome taken from active, inactive

These recorded examples may help you get a feel for the data.
Nc1nc2ncc(=O)[nH]c2c(=O)[nH]1: inactive
COc1ccc2c(c1OC)C(=O)OC2[C@H]1c2c(cc3c(c2OC)OCO3)CCN1C (some centres undefined): inactive
O=C1CC2OCC=C3CN4CC[C@]56c7ccccc7N1C5[C@H]2[C@H]3CC46 (some centres undefined): inactive
COc1ccc2c(c1)O[C@H]1c3ccc(OC)cc3OC[C@@H]21: inactive
OCc1ccccc1O: inactive

Task: Recorded test outcome, item `O=C1OC(c2ccc(O)cc2)(c2ccc(O)cc2)c2ccccc21`
Result: inactive

Task: # fetch the recorded call for `Oc1ccc(Cl)cc1` here
Result: inactive

====

Experiment: chemical genetic growth profiling, strain panel (AID 1159580);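 further: tested at 20 µM; growth read once vehicle control cultures reached saturation at 30 °C; 1 = growth at the plate median or of vehicle wells; lower values mean less growth of the strain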
Conditions: S. cerevisiae deletion strains, growth OD, locus YPL256C, strain CLN2
In all, about 5,500 compounds went through this assay and about 2,000 (36%) were called active. About 18% were inconclusive and are not listed. No stated cut-off is given here; in the data, active means normalized growth mostly below about 0.91 (no sharp cut-off); inconclusive means no clear call, values can overlap the other calls; inactive means mostly above about 0.92. Some of the results follow.
Give one outcome, nothing more. List: Y for active, N for inactive

Solved entries (count: 2):
Cc1cccc(NC(=S)NNC(=O)CSCc2cccc3ccccc23)c1: N
CCOC(=O)Nc1nc2ccccc2[nH]1: N

Task: Status in this test for CC(C)c1c(CN(C)C(C)Cc2ccccc2)n(C)n(-c2ccccc2)c1=O (centres undefined) ?
Result: N

Task: State the result this test recorded for COC(=O)C(C)c1ccc(C(=O)c2cccs2)cc1 (centres undefined) .
Result: N

Task: Record lookup: outcome of this test for `CCCCN(CCCC)CCCOC(=O)c1ccc(N)cc1` ?
Result: N

Task: Any idea what this test logged for `CCCCC(=O)Oc1ccccc1C(=O)O` ?
Result: N

Task: Give the logged outcome of this assay for the following compound: COC(=O)C(O)c1ccccc1 (centres undefined)
Result: N

Task: Recorded test call requested for `CCCCNc1ccc(C(=O)OCCN(C)C)cc1`
Result: N

Task: # outcome recorded in this test, key = `CCCCOC(=O)c1ccc(N)cc1`
Result: N

Task: Tell me the recorded outcome of this test for COC(=O)[C@@H]1OC(=O)[C@H]2O[C@@]23[C@@]1(C)CCC1[C@@]2(C)CCC(=O)C(C)(C)C2C[C@@H](OC(C)=O)[C@]13C (some centres undefined) .
Result: N

Task: How did this test come out for `CCC(C)(C)C(=O)O[C@H]1C[C@@H](C)C=C2C=C[C@H](C)[C@H](CC[C@@H]3C[C@@H](O)CC(=O)O3)[C@H]21` ?
Result: N

Task: // outcome(item) with item = `O=C(/C=C/Sc1nc2ccccc2s1)c1ccc(Cl)cc1`
Result: Y

Task: What outcome does the record of this test show for `CCCC[C@@H](CC)COC(=O)c1ccccc1O` ?
Result: N

Task: Outcome logged for `Nc1nc2ncc(=O)[nH]c2c(=O)[nH]1` in this assay:
Result: N

Task: Assay outcome for `CCCCOC(=O)c1ccc(O)cc1` : what was it?
Result: Y

Task: For `O=C1OC(c2ccc(O)cc2)(c2ccc(O)cc2)c2ccccc21` , which call appears in the assay record?
Result: N

Task: Field: outcome | Entry: O=C1CC2OCC=C3CN4CC[C@]56c7ccccc7N1C5[C@H]2[C@H]3CC46 (some centres undefined)
Result: N

Task: // param item: `O=C(NNc1ccc(I)cc1)c1cc(Cl)cc(Cl)c1` ; yields the recorded call
Result: Y

Task: Give the logged outcome of this assay for the following compound: `OC(=Cc1nc2ccccc2nc1C=C(O)c1ccc(Cl)cc1)c1ccc(Cl)cc1`
Result: N

====

Here the recorded normalized growth is given for each entry.
Assay: chemical genetic growth profiling, strain panel (AID 1159580);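 further: tested at 20 µM; growth read once vehicle control cultures reached saturation at 30 °C; 1 = growth at the plate median or of vehicle wells; lower values mean less growth of the strain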
Details: S. cerevisiae deletion strains, growth OD, locus YJL092W, strain hpr5, active compounds read low
The campaign covered roughly 5,500 compounds. About 2,000 (36%) were called active. Another 18% or so got no clear call; they are omitted. The list shows a part of the results.
The reply should be a number, written without any unit.

CC[N+](CC)(CC)CCOc1cccc(OCC[N+](CC)(CC)CC)c1OCC[N+](CC)(CC)CC: 1.02
O=C1C=C2C=C[C@@H]3C[C@@]2(O1)[C@H]1CCCCN31: 0.993
CC(C)(C)CC(C)(C)c1ccc(O)c(Cc2ccc(Cl)cc2Cl)c1: 1.02
CC(=O)N[C@@H](CS)C(=O)O: 1.02
OCc1ccccc1O: 1.02

Task: Requested field: normalized growth. Item: `CC(C)NC[C@H](O)COc1cccc2ccccc12`
Result: 0.993

Task: Form field: reported normalized growth of `Oc1ccc(Cl)cc1`
Result: 1.02

Task: Can you share its normalized growth? I mean this compound: O=C1CC2OCC=C3CN4CC[C@]56c7ccccc7N1C5[C@H]2[C@H]3CC46 (stereo partly specified)
Result: 1.02

Task: For the compound CC(C)(Oc1ccc(C2CC2(Cl)Cl)cc1)C(=O)O (stereo unspecified) , what normalized growth is on record?
Result: 1.01

Task: What normalized growth value was documented for this compound, Nc1ccn(C2O[C@H](CO)[C@@H](O)[C@@H]2O)c(=O)n1 (stereo partly specified) ?
Result: 0.985

Task: Please report the recorded normalized growth for `CCOC(=O)[C@H](CCc1ccccc1)N[C@@H](C)C(=O)N1[C@H](C(=O)O)C[C@@H]2CCC[C@@H]21` .
Result: 0.981

====

Experiment: chemical genetic growth profiling, strain panel (AID 1159580);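 further: tested at 20 µM; growth read once vehicle control cultures reached saturation at 30 °C; 1 = growth at the plate median or of vehicle wells; lower values mean less growth of the strain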
Settings: S. cerevisiae deletion strains, growth OD, locus YOR119C, strain RIO1, active compounds read low
The whole screen tested about 5,500 compounds, of which about 2,000 (36%) were called active. Another 18% or so got no clear call; they are omitted. The list shows a part of the results.
attribute measured: normalized growth
Answer with a bare number; do not write a unit.

O=[N+]([O-])c1ccc2c(c1)NC(c1ccc([N+](=O)[O-])s1)O2 (configuration not stated): 0.0996
CC1(C)OC(=O)C(=Cc2cccn2-c2ccc(OC(F)(F)F)cc2)C(=O)O1: 0.936
CCc1ccn2cc(Nc3ccccc3Cl)nc2c1: 0.985
O=C(Nc1ccc(OC(F)(F)F)cc1)N1CCN(c2nc(-c3ccccc3)ns2)CC1: 1
Cc1c(C(=S)Nc2ccccc2)sc2ccccc12: 0.965

Task: Give the measured normalized growth of `CC1(C)OC(=O)C(=Cc2cccn2-c2ccc(C(F)(F)F)cc2)C(=O)O1` .
Result: 0.944

Task: May I ask what normalized growth has been recorded for `CC(C)(C)c1ccc(C(=O)Nc2ccc(C(F)(F)F)cc2)s1` ?
Result: 0.993
